B1: E3 ubiquitin-protein ligase NEDD4, residues 836 to 881; numbered along this chain, P46934 (parent)
chain: EIEQGFLPKGWEVRHAPNGRPFFIDHNTKTTTWEDPRLKIPAHLRG

- Variants of: B1
- experimentSummary: abundance fitness (aPCA) (normalised: wild type 0, dead -1); higher = more abundant; growth selection in yeast, the domain comes from the species named
- conditionSet: Homo sapiens
metric: abundance fitness
Answer using only a numeral; do not append any unit.

Examples with answers:
variantNotation | dataValue
P36W | -0.954
T30H | 0.276
T32E | -0.655
R45I | -0.454
N27I | -0.105

Measured abundance fitness, L38A : -0.103

Measured abundance fitness, E34K : -0.369

Measured abundance fitness, H26V : -0.423

Measured abundance fitness, H26Y : -0.749

Measured abundance fitness, F22N : -0.774

Measured abundance fitness, R45N : 0.017

Measured abundance fitness, A42E : 0.027

Measured abundance fitness, P41W : -0.49

Measured abundance fitness, H43I : -0.156

Measured abundance fitness, T30P : -0.961

Measured abundance fitness, T32Q : 0.038

Measured abundance fitness, H43M : -0.251

Measured abundance fitness, R37T : -0.256

Measured abundance fitness, K39T : -0.023

Measured abundance fitness, F23I : -0.896
